Tested on: Streptococcus pneumoniae A28272
Assay: MIC, broth micro dilution assay (NCCLS)
Format: cell-based
Details: 50% Mueller-Hinton medium and 50% Todd Hewitt medium, 35° C., 18 hours
metric: MIC (μg/mL) Streptococcus pneumoniae A28272 (µg/mL)
Note: unit µg/mL is implicit; provide only the numeric part.

1. C=C(NC(=O)c1csc(-c2nc3c(cc2OCOP(=O)([O-])OC(C)(C)C)-c2nc(cs2)C(=O)NC(C(C)O)C(=O)NC(=C(C)OC)c2nc(cs2)C(=O)NC2c4nc(cs4)C(=O)NC(COC(=O)c4c5c6c(cccc6n4OCOP(=O)([O-])OC(C)(C)C)COC(=O)C(OC4CC(C)(O)C(N(C)C)C(C)O4)C2OC5)c2nc-3cs2)n1)C(N)=O.[Na+].[Na+] (centres unmarked) ... 8

Give MIC (μg/mL) Streptococcus pneumoniae A28272 for COC(C)=C1NC(=O)C(C(C)O)NC(=O)c2csc(n2)-c2cc(OCC(=O)OC(C)(C)C)c(-c3nc(C(N)=O)cs3)nc2-c2csc(n2)C2COC(=O)c3c4c5c(cccc5n3OCC(=O)OC(C)(C)C)COC(=O)C(OC3CC(C)(O)C(N(C)C)C(C)O3)C(OC4)C(NC(=O)c3csc1n3)c1nc(cs1)C(=O)N2 (centres unmarked) tested on Streptococcus pneumoniae A28272.
0.015
